Would you mind telling me the reported Kd of each entry?
- Format: binding
- measurement.setup: read-out: Kd (Me4CB[8]•guest)
Numbers only, in nM.

- molecule: "CNC1(c2ccccc2Cl)CCCCC1=O (centres unmarked)"
  obs.value: 36

query: Endpoint output: Kd of `c1ccc(C2(N3CCCCC3)CCCCC2)cc1` . Value?
result: 2
